# assayName: AUC (0 to infinity) in ICR mouse at 30 mg/kg, po measured at 0.083 to 24 hrs by LC-MS/MS analysis
# Format: ADME, organism-based
# Set-up: time lower 0.083 hrs, dose 30 mg/kg, time upper 24 hrs, route po
# conditionParameters: in vivo
metric: AUC(0-inf) (ng·h/mL)
Quick reminder: number only, in ng·h/mL, skip the unit.

Using the record for "Cn1cc(-c2ccc3ccn(Cc4ccccn4)c3c2)c2cc[nH]c2c1=O" , report its AUC(0-inf).
323

---

# studyTarget: Bromodomain testis-specific protein (Homo sapiens, UniProt Q58F21)
# assayName: Inhibition of His-tagged recombinant BRDT (unknown origin) (21 to 153 residues) using SGRGK(Ac)GGK(Ac)GLGK(Ac)GGAK(Ac)RHRK(Biotin)-OH as substrate measured after 1 hr by HTRF assay
metric: IC50

Using the record for "Cn1cc(-c2ccc3ccn(Cc4ccccn4)c3c2)c2cc[nH]c2c1=O" , report its IC50.
> 1000 nM

---

# assayName: Clearance in ICR mouse at 2 mg/kg, iv measured at 0.083 to 24 hrs by LC-MS/MS analysis
# Format: ADME, organism-based
# conditionParameters: in vivo, time 0.083-24 hrs
metric: clearance (mL/min/kg)
Quick reminder: number only, in mL/min/kg, skip the unit.

Using the record for "Cn1cc(-c2ccc3ccn(Cc4ccccn4)c3c2)c2cc[nH]c2c1=O" , report its clearance.
125

---

# assayName: Cmax in ICR mouse at 30 mg/kg, po measured at 0.083 to 24 hrs by LC-MS/MS analysis
# Type: ADME, organism-based
# Design: time 0.083-24 hrs, dose 30 mg/kg, route po
# conditionParameters: in vivo
metric: Cmax (ng/mL)
Quick reminder: number only, in ng/mL, skip the unit.

Using the record for "Cn1cc(-c2ccc3ccn(Cc4ccccn4)c3c2)c2cc[nH]c2c1=O" , report its Cmax.
390

---

# assayName: Volume of distribution at steady state in ICR mouse at 2 mg/kg, iv measured at 0.083 to 24 hrs by LC-MS/MS analysis
# Assay type: ADME, organism-based
# conditionParameters: in vivo, time 0.083-24 hrs, read-out: Vdss
metric: Vd
Write your answer as a measured quantity: the number, then the unit.

Using the record for "Cn1cc(-c2ccc3ccn(Cc4ccccn4)c3c2)c2cc[nH]c2c1=O" , report its Vd.
2.08 L/kg

---

# assayName: Half life in ICR mouse at 30 mg/kg, po measured at 0.083 to 24 hrs by LC-MS/MS analysis
# Format: ADME, organism-based
# conditionParameters: in vivo, time 0.083-24 hrs
metric: half-life

Using the record for "Cn1cc(-c2ccc3ccn(Cc4ccccn4)c3c2)c2cc[nH]c2c1=O" , report its half-life.
1.34 h

---

# assayName: Oral bioavailability in ICR mouse at 30 mg/kg measured at 0.083 to 24 hrs by LC-MS/MS analysis
# Format: ADME, organism-based
# conditionParameters: in vivo, time 0.083-24 hrs
metric: bioavailability (%)
Quick reminder: number only, in %, skip the unit.

Using the record for "Cn1cc(-c2ccc3ccn(Cc4ccccn4)c3c2)c2cc[nH]c2c1=O" , report its bioavailability.
7.91

---

# studyTarget: Bromodomain-containing protein 4 (Homo sapiens)
# assayName: Inhibition of His-tagged […] recombinant BRD4 (unknown origin) (21 to 153 residues) using SGRGK(Ac)GGK(Ac)GLGK(Ac)GGAK(Ac)RHRK(Biotin)-OH as substrate measured after 1 hr by HTRF assay
metric: pIC50
The quantity pIC50 is defined as the negative base-10 logarithm of the molar concentration.

Using the record for CCCC(C)n1ccc2ccc(-c3c(C)noc3C)cc21 (stereo not drawn) , report its pIC50.
5.61

Using the record for COc1cc(Cn2ccc3ccc(C4=CNC(=O)C5NC=CC45)cc32)cc(OC)c1 (stereo not drawn) , report its pIC50.
6.25

Using the record for O=C1NC=C(c2ccc3ccn(Cc4ccc(F)cc4)c3c2)C2C=CNC12 (stereo not drawn) , report its pIC50.
6.38

Using the record for O=C1NC=C(c2ccc3ccn(Cc4ccccc4)c3c2)C2C=CNC12 (stereo not drawn) , report its pIC50.
6.33

Using the record for "Cc1noc(C)c1-c1ccc2ccn(Cc3ccccc3)c2c1" , report its pIC50.
5.58

Using the record for CCC(C)n1ccc2ccc(-c3cn(C)c(=O)c4[nH]ccc34)cc21 (stereo not drawn) , report its pIC50.
6.17

Using the record for CCCC(C)n1ccc2ccc(C3=CNC(=O)C4NC=CC34)cc21 (stereo not drawn) , report its pIC50.
6.24

Using the record for "Cc1noc(C)c1-c1ccc2ccn(Cc3ccccn3)c2c1" , report its pIC50.
6.32

Using the record for "Cc1sc2c(c1C)C(c1ccc(Cl)cc1)=N[C@@H](C(=O)OC(C)(C)C)c1nnc(C)n1-2" , report its pIC50.
7.04

Using the record for O=C1NC=C(c2ccc3ccn(Cc4cc(F)cc(F)c4)c3c2)C2C=CNC12 (stereo not drawn) , report its pIC50.
6.46

Using the record for "Cc1cn(Cc2ccccc2)c2cc(-c3cn(C)c(=O)c4[nH]ccc34)ccc12" , report its pIC50.
6.29

Using the record for CC(c1ccccc1)n1ccc2ccc(-c3cn(C)c(=O)c4[nH]ccc34)cc21 (stereo not drawn) , report its pIC50.
6.30

Using the record for "Cn1cc(-c2ccc3ccn(Cc4ccccn4)c3c2)c2cc[nH]c2c1=O" , report its pIC50.
6.97

Using the record for Cc1cn(Cc2cc(F)cc(F)c2)c2cc(C3=CN(C)C(=O)C4NC=CC34)ccc12 (stereo not drawn) , report its pIC50.
6.38

---

# studyTarget: Bromodomain and PHD finger-containing protein 3 (Homo sapiens, UniProt Q9ULD4)
# Sequence (Q9ULD4 whole entry, the tested form may be a part): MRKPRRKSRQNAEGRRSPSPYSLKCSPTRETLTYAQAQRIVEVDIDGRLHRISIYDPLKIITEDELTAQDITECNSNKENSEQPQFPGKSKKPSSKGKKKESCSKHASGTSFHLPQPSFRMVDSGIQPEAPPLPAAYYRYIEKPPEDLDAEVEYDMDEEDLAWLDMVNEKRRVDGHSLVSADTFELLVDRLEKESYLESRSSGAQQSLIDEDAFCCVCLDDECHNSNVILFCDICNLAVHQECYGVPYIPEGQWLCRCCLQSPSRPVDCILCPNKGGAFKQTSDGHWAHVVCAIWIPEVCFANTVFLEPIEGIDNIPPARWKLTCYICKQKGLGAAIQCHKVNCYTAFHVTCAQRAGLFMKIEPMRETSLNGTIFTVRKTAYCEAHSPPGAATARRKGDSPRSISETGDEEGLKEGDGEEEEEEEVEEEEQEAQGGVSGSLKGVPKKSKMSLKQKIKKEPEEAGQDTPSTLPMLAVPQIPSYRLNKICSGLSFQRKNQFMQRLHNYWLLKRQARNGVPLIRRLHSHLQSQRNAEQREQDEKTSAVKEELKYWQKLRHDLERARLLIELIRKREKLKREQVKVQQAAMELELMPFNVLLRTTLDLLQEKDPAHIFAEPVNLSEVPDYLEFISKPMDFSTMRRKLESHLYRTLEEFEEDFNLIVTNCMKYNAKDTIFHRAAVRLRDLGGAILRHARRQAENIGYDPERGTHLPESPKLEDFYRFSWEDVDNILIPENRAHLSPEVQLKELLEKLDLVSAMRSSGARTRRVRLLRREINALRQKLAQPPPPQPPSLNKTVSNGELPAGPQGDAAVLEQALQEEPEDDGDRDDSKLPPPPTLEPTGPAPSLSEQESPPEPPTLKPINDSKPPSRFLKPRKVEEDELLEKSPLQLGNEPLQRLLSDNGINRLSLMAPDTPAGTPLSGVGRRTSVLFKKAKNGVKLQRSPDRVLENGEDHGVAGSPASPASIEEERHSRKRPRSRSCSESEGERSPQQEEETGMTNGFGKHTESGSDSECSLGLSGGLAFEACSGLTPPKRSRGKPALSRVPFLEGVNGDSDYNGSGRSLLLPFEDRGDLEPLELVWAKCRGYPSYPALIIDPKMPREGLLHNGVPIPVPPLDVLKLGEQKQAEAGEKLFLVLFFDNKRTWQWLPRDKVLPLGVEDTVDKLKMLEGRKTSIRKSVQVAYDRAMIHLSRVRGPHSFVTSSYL
# assayName: Inhibition of His-tagged recombinant BRPF3 (unknown origin) (11 to 188 residues) using SGRGK(Ac)GGK(Ac)GLGK(Ac)GGAK(Ac)RHRK(Biotin)-OH as substrate measured after 1 hr by HTRF assay
metric: IC50

Using the record for "Cn1cc(-c2ccc3ccn(Cc4ccccn4)c3c2)c2cc[nH]c2c1=O" , report its IC50.
> 1000 nM
